# target_or_test_system: Fuc(a1-2)Gal(b1-3)GalNAc(b1-4)[Neu5Ac(a2-3)]Gal(b1-4)Glc
# test_protocol: glycan array binding signal (z-score within array); higher = stronger binding
# run_conditions: glycan notation: IUPAC condensed, linker removed
Only a selection was taken, and the strongest signals are over-represented in it overall.
observed_property: glycan array binding signal (z-score)
Please respond with just the number, no unit label.

Return reported glycan array binding signal (z-score); argument: Epa7 (Candida glabrata), Q6DTM6_CANGB (protein) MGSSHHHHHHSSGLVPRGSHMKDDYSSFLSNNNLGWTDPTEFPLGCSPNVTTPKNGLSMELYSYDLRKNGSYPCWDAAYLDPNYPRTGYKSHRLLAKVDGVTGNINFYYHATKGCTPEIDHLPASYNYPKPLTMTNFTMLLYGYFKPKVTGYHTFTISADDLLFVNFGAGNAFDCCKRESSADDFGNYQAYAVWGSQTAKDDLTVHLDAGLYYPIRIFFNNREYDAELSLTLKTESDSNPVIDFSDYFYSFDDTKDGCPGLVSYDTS -0.072

The reported measurements were obtained from the supplement of paper PMC8728848.
